# System: MALME-3M
# EXPERIMENTAL_PROTOCOL: NCI-60 single-dose screen
# Assay type: cell-based
# CONDITION_INFO: Homo sapiens, single dose 10 µM, '-' = no inhibition, read-out: % Growth Inhibition
MEASUREMENT_LABEL: inhibition at 10 µM

COc1ccc(CSc2nc(-c3ccc(Cl)cc3)cc(-c3ccc(OC)c(OC)c3)n2)cc1 [Compound 29]: 4.95%
CCCSc1nc(-c2ccc(Cl)cc2)cc(-c2ccc(OC)cc2)n1 [Compound 11]: < 0%
CCSc1nc(-c2ccc(OC)cc2)cc(-c2cccc(OC)c2)n1 [Compound 17]: < 0%

As a next step, examine the compound that follows.
Prompt: inhibition at 10 µM for CCCSc1nc(-c2ccc(OC)cc2)cc(-c2cccc(OC)c2)n1 [Compound 18] ?
Response: < 0%

----------
# Test system: HOP-92
# EXPERIMENTAL_PROTOCOL: NCI-60 single-dose screen
# Format: cell-based
# CONDITION_INFO: Homo sapiens, single dose 10 µM, '-' = no inhibition, read-out: % Growth Inhibition
MEASUREMENT_LABEL: inhibition at 10 µM

Check out these entries, answers already filled in.
CCCSc1nc(-c2ccc(Cl)cc2)cc(-c2ccc(OC)cc2)n1: < 0%
CCCSc1nc(-c2ccc(OC)cc2)cc(-c2cccc(OC)c2)n1: < 0%
COc1ccc(CSc2nc(-c3ccc(Cl)cc3)cc(-c3ccc(OC)c(OC)c3)n2)cc1: 20.6%
CCSc1nc(-c2ccc(Cl)cc2)cc(-c2ccc(OC)cc2)n1: < 0%
COc1ccc(-c2cc(-c3ccc(Cl)cc3)nc(SC)n2)cc1OC: < 0%

Prompt: inhibition at 10 µM for COc1ccc(-c2cc(-c3ccc(Cl)cc3)nc(SC)n2)cc1 ?
Response: 3.16%

Prompt: inhibition at 10 µM for CCSc1nc(-c2ccc(OC)cc2)cc(-c2cccc(OC)c2)n1 ?
Response: < 0%

Prompt: inhibition at 10 µM for COc1ccc(-c2cc(-c3ccc(Cl)cc3)nc(SCc3ccccc3)n2)cc1 ?
Response: < 0%

Prompt: inhibition at 10 µM for COc1ccc(-c2cc(-c3cccc(OC)c3)nc(SC(C)C)n2)cc1 ?
Response: < 0%

Prompt: inhibition at 10 µM for C=CCSc1nc(-c2ccc(Cl)cc2)cc(-c2ccc(OC)c(OC)c2)n1 ?
Response: 10.6%

Prompt: inhibition at 10 µM for C=CCSc1nc(-c2ccc(Cl)cc2)cc(-c2ccc(OC)cc2)n1 ?
Response: < 0%

----------
# Test system: NCI-H460
# EXPERIMENTAL_PROTOCOL: NCI-60 single-dose screen
# Type: cell-based
# CONDITION_INFO: Homo sapiens, single dose 10 µM, '-' = no inhibition, read-out: % Growth Inhibition
# Description: The National Cancer Institute’s Developmental Therapeutic Program (www.dtp.nci.nih.gov) has tested compounds 9–29 (except compounds 21 and 22) against 60 cancer cell lines from nine types (leukemia, lung, colon, CNS, melanoma, ovarian, renal, prostate, and breast cancer) at a single dose (10 μM) ([El-Sherief et al., 2018]). […]
Catalogue of inhibition at 10 µM values

Check out these entries, answers already filled in.
COc1ccc(CSc2nc(-c3ccc(Cl)cc3)cc(-c3ccc(OC)c(OC)c3)n2)cc1 [Compound 29]: 21.2%
C=CCSc1nc(-c2ccc(Cl)cc2)cc(-c2ccc(OC)c(OC)c2)n1 [Compound 27]: 6.7%

Prompt: inhibition at 10 µM for CCCSc1nc(-c2ccc(OC)cc2)cc(-c2cccc(OC)c2)n1 [Compound 18] ?
Response: < 0%

Prompt: inhibition at 10 µM for COc1ccc(-c2cc(-c3ccc(Cl)cc3)nc(SC(C)C)n2)cc1OC [Compound 26] ?
Response: < 0%

Prompt: inhibition at 10 µM for COc1ccc(CSc2nc(-c3ccc(Cl)cc3)cc(-c3ccc(OC)cc3)n2)cc1 [Compound 15] ?
Response: < 0%

Prompt: inhibition at 10 µM for CCCSc1nc(-c2ccc(Cl)cc2)cc(-c2ccc(OC)cc2)n1 [Compound 11] ?
Response: < 0%

Prompt: inhibition at 10 µM for COc1ccc(-c2cc(-c3ccc(Cl)cc3)nc(SCc3ccccc3)n2)cc1OC [Compound 28] ?
Response: 14.8%

----------
# System: MDA-MB-468
# EXPERIMENTAL_PROTOCOL: NCI-60 single-dose screen
# Format: cell-based
# CONDITION_INFO: Homo sapiens, single dose 10 µM, '-' = no inhibition, read-out: % Growth Inhibition
MEASUREMENT_LABEL: inhibition at 10 µM

CCCSc1nc(-c2ccc(Cl)cc2)cc(-c2ccc(OC)c(OC)c2)n1 [Compound 25]: < 0%
CCSc1nc(-c2ccc(Cl)cc2)cc(-c2ccc(OC)cc2)n1 [Compound 10]: < 0%

As a next step, examine the compound that follows.
Prompt: inhibition at 10 µM for COc1ccc(-c2cc(-c3ccc(Cl)cc3)nc(SCc3ccccc3)n2)cc1 [Compound 14] ?
Response: < 0%

----------
# Tested on: RPMI-8226
# EXPERIMENTAL_PROTOCOL: NCI-60 single-dose screen
# Type: cell-based
# CONDITION_INFO: Homo sapiens, single dose 10 µM, '-' = no inhibition, read-out: % Growth Inhibition
MEASUREMENT_LABEL: inhibition at 10 µM (%)
State just the number; it will be interpreted in %.

Check out these entries, answers already filled in.
CCSc1nc(-c2ccc(Cl)cc2)cc(-c2ccc(OC)cc2)n1 [Compound 10]: 6.56
COc1ccc(-c2cc(-c3ccc(Cl)cc3)nc(SC)n2)cc1 [Compound 9]: 10.8

Prompt: What value of inhibition at 10 µM on RPMI-8226 does COc1ccc(-c2cc(-c3cccc(OC)c3)nc(SC)n2)cc1 [Compound 16] have?
Response: 3.81

----------
Catalogue of inhibition at 10 µM values
# System: HCT-15
# EXPERIMENTAL_PROTOCOL: NCI-60 single-dose screen
# Type: cell-based
# CONDITION_INFO: Homo sapiens, single dose 10 µM, '-' = no inhibition, read-out: % Growth Inhibition

Check out these entries, answers already filled in.
C=CCSc1nc(-c2ccc(Cl)cc2)cc(-c2ccc(OC)cc2)n1 [Compound 13]: 7.93%
COc1ccc(CSc2nc(-c3ccc(Cl)cc3)cc(-c3ccc(OC)c(OC)c3)n2)cc1 [Compound 29]: 42.1%
COc1ccc(-c2cc(-c3cccc(OC)c3)nc(SC)n2)cc1 [Compound 16]: 19.5%
COc1ccc(-c2cc(-c3cccc(OC)c3)nc(SC(C)C)n2)cc1 [Compound 19]: 24.5%
COc1ccc(-c2cc(-c3ccc(Cl)cc3)nc(SC)n2)cc1OC [Compound 23]: 28%
CCSc1nc(-c2ccc(Cl)cc2)cc(-c2ccc(OC)c(OC)c2)n1 [Compound 24]: 30.7%

Prompt: inhibition at 10 µM for COc1ccc(-c2cc(-c3ccc(Cl)cc3)nc(SC(C)C)n2)cc1 [Compound 12] ?
Response: 38.7%

Prompt: inhibition at 10 µM for COc1ccc(-c2cc(-c3ccc(Cl)cc3)nc(SCc3ccccc3)n2)cc1 [Compound 14] ?
Response: 4.95%

Prompt: inhibition at 10 µM for COc1ccc(-c2cc(-c3ccc(Cl)cc3)nc(SC)n2)cc1 [Compound 9] ?
Response: 15%

Prompt: inhibition at 10 µM for C=CCSc1nc(-c2ccc(OC)cc2)cc(-c2cccc(OC)c2)n1 [Compound 20] ?
Response: 5.58%

Prompt: inhibition at 10 µM for C=CCSc1nc(-c2ccc(Cl)cc2)cc(-c2ccc(OC)c(OC)c2)n1 [Compound 27] ?
Response: 18.8%

----------
# EXPERIMENTAL_PROTOCOL: Cell viability assay (MTT) on normal cells
# Format: cell-based
# CONDITION_INFO: human, MCF-10A normal mammary gland epithelial cells, 4 days incubation
MEASUREMENT_LABEL: viability at 4 days, 50 µM (%)
State just the number; it will be interpreted in %.

COc1ccc(-c2cc(-c3cccc(OC)c3)nc(SCc3ccccc3)n2)cc1 [Compound 21]: 89

As a next step, examine the molecule that follows.
Prompt: viability at 4 days, 50 µM for CCCSc1nc(-c2ccc(Cl)cc2)cc(-c2ccc(OC)c(OC)c2)n1 [Compound 25] ?
Response: 91

----------
Catalogue of inhibition at 10 µM values
# Test system: K-562
# EXPERIMENTAL_PROTOCOL: NCI-60 single-dose screen
# Assay type: cell-based
# CONDITION_INFO: Homo sapiens, K562, single dose 10 µM, '-' = no inhibition, read-out: % Growth Inhibition

COc1ccc(CSc2nc(-c3ccc(Cl)cc3)cc(-c3ccc(OC)cc3)n2)cc1: 12.8%
COc1ccc(-c2cc(-c3ccc(Cl)cc3)nc(SCc3ccccc3)n2)cc1: 11.7%
C=CCSc1nc(-c2ccc(Cl)cc2)cc(-c2ccc(OC)cc2)n1: 15.6%
COc1ccc(-c2cc(-c3ccc(Cl)cc3)nc(SC(C)C)n2)cc1OC: 6.67%
COc1ccc(-c2cc(-c3ccc(Cl)cc3)nc(SC)n2)cc1OC: 39%

As a next step, examine the compound that follows.
Prompt: inhibition at 10 µM for COc1ccc(-c2cc(-c3ccc(Cl)cc3)nc(SCc3ccccc3)n2)cc1OC ?
Response: 30.9%
